Test system: p38-alpha;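 also: KINOMEscan kinase panel screen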
Construct: gene MAPK14
measurementContext: concentration: 1 μM, replicates: in singlicate; n = 1
assayMetric: %Inh (%)
Kindly answer with a numeric value in %, unit omitted.

Query %Inh on p38-alpha for O=C(Nc1n[nH]c2nc(-c3ccccc3O)ccc12)C1CC1 [SB-711880]
0

Similarly, CN(C)c1ncnc2nc[nH]c12 [SKF-31736] ?
7

Similarly, Cc1cc(-c2c(-c3ccc(F)cc3)ncn2CCCN2CCOCC2)nc(N)n1 [SB-222517] ?
22

Similarly, Cc1ccc(O)cc1Nc1ccnc2ccc(C(C)(C)C)cc12 [GW856805] ?
1

Similarly, Cc1ccc(-c2ccc3occ(-c4ccc(S(C)=O)cc4)c3c2)nn1 (stereo not shown) ?
0

Similarly, `CN(c1ccc(F)c(NC(=O)c2cccc(OC(C)(C)C#N)c2Cl)c1)c1ccc2nc(NC(=O)C3CC3)sc2n1` ?
70

# context switch: different molecule, same %Inh
Query %Inh on p38-alpha for Cn1cc(-c2ccc3c(c2)CCN3C(=O)Cc2cc(F)cc(F)c2F)c2c(N)ncnc21 [GSK2634140]
0
